TARGET_OF_ASSAY: Cytochrome P450 1A2 (Homo sapiens) (UniProt P05177)
Sequence (P05177 whole entry, looked up): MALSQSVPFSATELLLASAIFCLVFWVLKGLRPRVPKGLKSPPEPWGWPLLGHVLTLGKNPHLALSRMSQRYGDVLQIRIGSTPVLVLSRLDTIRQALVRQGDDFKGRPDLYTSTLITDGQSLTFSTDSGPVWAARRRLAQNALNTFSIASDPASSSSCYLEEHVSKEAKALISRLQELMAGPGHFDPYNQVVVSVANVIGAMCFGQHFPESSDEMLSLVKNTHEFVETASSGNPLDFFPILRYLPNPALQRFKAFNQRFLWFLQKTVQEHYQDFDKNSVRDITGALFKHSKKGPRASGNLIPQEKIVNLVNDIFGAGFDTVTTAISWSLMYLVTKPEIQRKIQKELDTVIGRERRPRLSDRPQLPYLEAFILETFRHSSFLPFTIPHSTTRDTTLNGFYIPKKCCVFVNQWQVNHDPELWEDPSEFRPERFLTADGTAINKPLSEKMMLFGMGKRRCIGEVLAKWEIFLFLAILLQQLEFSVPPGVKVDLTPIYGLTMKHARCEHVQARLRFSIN
TEST: Cytochrome panel assay with activity outcomes; also: % is scaled to controls: 0 for no effect and ±100 for the full control effect
CONDITION_SET: recombinant CYP, pro-luciferin dealkylation, luminescence, p450-cyp1a2; series mostly up to 57.1 µM
Out of some 16,000 compounds screened, about 5,700 (36%) were called active. Roughly 24% stayed inconclusive and do not appear here. This is one part of the list.
activity, negative = inhibition overview

Solved cases below.
{"SMILES_RECORD": "CO[C@@H]1COC(=O)CC=C[C@@H](C)[C@@H]2C=C[C@H](O)[C@@H](COC(=O)[C@H](C)NC(=O)CC=C[C@H]1C)O2", "TARGET_OF_ASSAY": "Cytochrome P450 1A2 (Homo sapiens) (UniProt P05177)", "RESULT": "-7.89% [at 11.4 µM] (inactive)"}
{"SMILES_RECORD": "CO[C@H]1COC(=O)[C@H](C)COC(=O)[C@@H](Cc2ccccc2)NC(=O)C/C=C\\[C@H]1C", "TARGET_OF_ASSAY": "Cytochrome P450 1A2 (Homo sapiens) (UniProt P05177)", "RESULT": "-3.2% [at 11.4 µM] (inactive)"}
{"SMILES_RECORD": "NC(N)=NC(N)=Nc1ccc(S(=O)(=O)O)cc1", "TARGET_OF_ASSAY": "Cytochrome P450 1A2 (Homo sapiens) (UniProt P05177)", "RESULT": "-8.09% [at 11.4 µM] (inactive)"}
{"SMILES_RECORD": "O=C1[C@@H]2[C@H]3[C@H](O)[C@H](O)C/C(=N/OCc4ccccc4)[C@@H]3CC[C@H]2C(=O)N1c1ccc(F)cc1F", "TARGET_OF_ASSAY": "Cytochrome P450 1A2 (Homo sapiens) (UniProt P05177)", "RESULT": "4.37% [at 11.4 µM] (inactive)"}
{"SMILES_RECORD": "Cc1cc2c(nc1C)CCCCN2C[C@H](O)CN1CCCc2nc(-c3ccc(Br)cc3)ccc21", "TARGET_OF_ASSAY": "Cytochrome P450 1A2 (Homo sapiens) (UniProt P05177)", "RESULT": "-8.63% [at 11.4 µM] (inactive)"}
{"SMILES_RECORD": "CCc1ncc(CO)n1Cc1cccc2ccccc12", "TARGET_OF_ASSAY": "Cytochrome P450 1A2 (Homo sapiens) (UniProt P05177)", "RESULT": "-6.53% [at 11.4 µM] (inactive)"}

Prompt: Given the compound `NC(N)=NC(N)=Nc1c(F)c(F)c(F)c(F)c1F` , write its reported activity, negative = inhibition.
Response: 10.9% [at 2.29 µM] (inactive)

Prompt: Given the compound `C#CCCCO/N=C1/C[C@@H](O)[C@@H](O)[C@@H]2[C@@H]3C(=O)N(CCC(=O)OCC)C(=O)[C@H]3CC[C@H]12` , write its reported activity, negative = inhibition.
Response: -10.2% [at 11.4 µM] (inactive)

The reported measurements were obtained from PubChem BioAssay AID1851.
